B1: MYL5 (parent)
chain: DVAGNLDYKALSYVITHGEEKEE

# Variants of: B1
# Experiment: protein stability index of a GFP-peptide fusion (GPS, HEK-293T) (PSI 1-6); higher = more stable;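 note: lentivirally expressed fusions sorted by FACS into six bins by GFP to DsRed ratio, PSI derived from sequencing read proportions per bin multiplied by bin number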
# Condition set: c terminus: native
Record form. Attribute: protein stability index. Fill in for each entry.
Answers are plain numbers.

# annotated cases, reported protein stability index shown
I would be grateful if you could share the reported protein stability index for Y13L .
2.01

Try this variant too: D7G
2.02

What do you have for N5K ?
1.97

Then this variant: T16E
1.99

Further cases:
Look up protein stability index for this variant: E20K
2.05
